System Name: human A3 receptor (Homo sapiens)
Sequence (P0DMS8 whole entry): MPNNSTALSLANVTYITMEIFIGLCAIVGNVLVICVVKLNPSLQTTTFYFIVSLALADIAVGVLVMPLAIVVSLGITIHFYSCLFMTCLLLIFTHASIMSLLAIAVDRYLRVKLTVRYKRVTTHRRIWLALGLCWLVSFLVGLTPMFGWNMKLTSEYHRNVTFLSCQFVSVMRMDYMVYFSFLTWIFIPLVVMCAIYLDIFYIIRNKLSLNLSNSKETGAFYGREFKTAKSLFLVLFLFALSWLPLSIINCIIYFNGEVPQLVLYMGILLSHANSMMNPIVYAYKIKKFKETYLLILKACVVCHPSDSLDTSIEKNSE
Protocol Description: cAMP (HTRF) functional assay, recombinant CHO cells expressing human A3 receptor, forskolin + agonist IB-MECA
Listed below: IC50 values for each entry.

Some compounds with recorded IC50:
COc1ncc(-c2cnn(C)c2)c2sc(NC(=O)N3CC[C@]4(CCOC4)C3)nc12    > 1000 nM
COc1ncc(-c2cnn(C)c2)c2sc(NC(=O)N3CCC4(CCOC4)C3)nc12 (stereo not shown)    > 1000 nM
COc1ncc(N2CCOCC2)c2sc(NC(=O)C3CC3)nc12    > 1000 nM
COc1ncc(-c2ccccc2)c2sc(NC(=O)N3CCC4(CCOC4)C3)nc12 (stereo not shown)    > 1000 nM
COCCn1cc(C(=O)Nc2nc3c(OC)ncc(-c4cnn(C)c4)c3s2)cn1    > 1000 nM

State the recorded IC50 for this entry: COc1ncc(-c2cccc(F)c2F)c2sc(NC(=O)N3CCC4(CCOCC4)C3)nc12 > 1000 nM

State the recorded IC50 for this entry: COc1nc(Cl)c(N2CCOCC2)c2sc(NC(=O)c3cnn(C)c3)nc12 < 1000 nM

State the recorded IC50 for this entry: COc1ncc(N2CCOCC2)c2sc(NC(=O)N3CCC4(CCOC4)C3)nc12 (stereo not shown) > 1000 nM

State the recorded IC50 for this entry: COc1ccc(-c2cnc(OC)c3nc(NC(=O)N4CCC5(CCOCC5)C4)sc23)c(OC)n1 > 1000 nM

State the recorded IC50 for this entry: COc1ncc(N2CC3(CCCO3)C2)c2sc(NC(=O)c3cnn(C)c3)nc12 < 1000 nM

----------
Protocol Description: Pharmacokinetic properties in mouse after single intravenous and oral administration
Cond: female, in vivo, iv, 0.2 mg/kg
Readout Name: half-life (min)
Kindly provide the numeric value in min only, without the unit symbol.

COCCn1cc(C(=O)Nc2nc3c(OC)ncc(N4CCOCC4)c3s2)cn1    49
COCCn1cc(C(=O)Nc2nc3c(OC)ccc(N4CCOCC4)c3s2)cn1 [Benzothiazole analogue to No. 4, reference compound]    19.9

State the recorded half-life for this entry: COc1ncc(N2CCOCC2)c2sc(NC(=O)N3CCC(C)(O)CC3)nc12 10.3

----------
System Name: UniProtKB P29275
Protocol Description: cAMP (HTRF) functional assay, recombinant HEK293 cells expressing human A2B receptor, agonist NECA
Readout Name: IC50

Some compounds with recorded IC50:
COc1ncc(-c2ccccc2)c2sc(NC(=O)c3ccc(C(=O)NCCN(C)C)cc3)nc12    < 100 nM
COc1ncc(-c2ccccc2)c2sc(NC(=O)N3CC[C@@]4(CCOC4)C3)nc12    < 100 nM
COc1ncc(-c2ccccc2)c2sc(NC(=O)N3CCC4(CCCC4N)CC3)nc12 (centres unmarked)    < 100 nM
COc1ncc(-c2ccccc2)c2sc(NC(=O)C3(N)CC3)nc12    < 100 nM
COc1nc(F)c(-c2ccccc2)c2sc(NC(=O)N3CCC4(CCOCC4)C3)nc12    < 10 nM

State the recorded IC50 for this entry: COc1ncc(-c2ccncc2)c2sc(NC(=O)c3ccc(C(=O)N(C)C)cc3)nc12 < 100 nM

State the recorded IC50 for this entry: COc1ncc(N2CCOCC2)c2sc(NC(=O)N3CC[C@@]4(CCOC4)C3)nc12 < 1000 nM

State the recorded IC50 for this entry: COc1ncc(-c2ccccc2)c2sc(NC(=O)N3CC[C@]4(CCOC4)C3)nc12 < 100 nM

----------
Listed below: IC50 values for each entry.
System Name: human A2B receptor (Homo sapiens, UniProt P29275)
Sequence (P29275 whole entry): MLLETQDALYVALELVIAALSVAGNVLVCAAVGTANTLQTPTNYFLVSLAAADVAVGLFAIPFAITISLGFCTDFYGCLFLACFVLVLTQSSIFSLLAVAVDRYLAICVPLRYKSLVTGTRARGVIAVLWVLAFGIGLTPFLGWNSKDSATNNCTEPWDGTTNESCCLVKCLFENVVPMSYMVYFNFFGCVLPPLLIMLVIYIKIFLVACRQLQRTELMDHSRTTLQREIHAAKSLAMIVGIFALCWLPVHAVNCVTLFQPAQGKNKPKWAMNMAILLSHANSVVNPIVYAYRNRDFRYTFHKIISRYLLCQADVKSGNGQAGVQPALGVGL
Protocol Description: cAMP (HTRF) functional assay, recombinant HEK293 cells expressing human A2B receptor, agonist NECA

COc1nc(C)c(-c2ccccc2)c2sc(NC(=O)N3CCC4(CCOCC4)C3)nc12    < 100 nM
COc1ncc(-c2cnn(C)c2)c2sc(NC(=O)c3cnc(C)s3)nc12    < 100 nM
COc1ncc(-c2ccccc2)c2sc(NC(=O)c3ccc(CN4CCCC4=O)cc3)nc12    < 100 nM
COc1ncc(-c2ccccc2)c2sc(NC(=O)c3ccc(C(=O)N(C)CCO)cc3)nc12    < 10 nM
COc1ncc(C2CCOCC2)c2sc(NC(=O)c3ccc(CN4CCCC4=O)cc3)nc12    < 100 nM
COc1ccccc1-c1cnc(OC)c2nc(NC(=O)N3CCC4(CCOCC4)C3)sc12    < 100 nM

State the recorded IC50 for this entry: COc1ncc(-c2ccccc2)c2sc(NC(=O)C3CC3)nc12 < 100 nM

State the recorded IC50 for this entry: COc1ncc(-c2cccc(F)c2F)c2sc(NC(=O)N3CCC4(CCOCC4)C3)nc12 < 100 nM

State the recorded IC50 for this entry: COc1ncc(-c2ccccc2)c2sc(NC(=O)N3CC[C@@]4(CCCOC4)C3)nc12 < 100 nM

State the recorded IC50 for this entry: COc1ncc(C2=CCOCC2)c2sc(NC(=O)N3CCC4(CCOCC4)C3)nc12 < 10 nM

State the recorded IC50 for this entry: COc1ncc(-c2cccnc2)c2sc(NC(=O)c3ccc(C(=O)N(C)C)cc3)nc12 < 100 nM

----------
System Name: human A3 receptor (Homo sapiens)
Protocol Description: cAMP (HTRF) functional assay, recombinant CHO cells expressing human A3 receptor, forskolin + agonist IB-MECA
pIC50: −log10 of the molar value.
Listed below: pIC50 values for each entry.

Some compounds with recorded pIC50:
COc1ncc(-c2ccccc2)c2sc(NC(=O)c3ccc(C(=O)N(C)CCO)cc3)nc12    < 6.00
COc1ncc(-c2cc(F)ccc2F)c2sc(NC(=O)N3CCC4(CCOCC4)C3)nc12    < 6.00
COCCOc1cccc(-c2cnc(OC)c3nc(NC(=O)c4cnn(CCOC)c4)sc23)c1    > 6.00

Kindly consider the entry below.
State the recorded pIC50 for this entry: COc1nc(F)c(N2CCOCC2)c2sc(NC(=O)c3cnn(C)c3)nc12 > 6.00

----------
Listed below: IC50 values for each entry.
System Name: human A1 receptor (Homo sapiens)
Construct: expressed in transfected cells; host or cells: CHO
Sequence (P30542 whole entry): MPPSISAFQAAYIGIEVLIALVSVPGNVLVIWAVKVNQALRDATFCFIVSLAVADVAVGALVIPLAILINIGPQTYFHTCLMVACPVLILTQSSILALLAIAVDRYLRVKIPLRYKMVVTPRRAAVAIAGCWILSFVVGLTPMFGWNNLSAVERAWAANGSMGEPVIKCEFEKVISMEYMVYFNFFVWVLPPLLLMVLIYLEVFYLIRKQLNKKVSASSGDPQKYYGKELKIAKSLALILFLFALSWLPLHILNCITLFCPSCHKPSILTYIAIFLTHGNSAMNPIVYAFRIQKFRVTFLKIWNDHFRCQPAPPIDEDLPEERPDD
Protocol Description: cAMP (HTRF) functional assay, recombinant CHO cells expressing human A1 receptor, forskolin + agonist CPA
Type: cell-based

Some compounds with recorded IC50:
COc1ccc(-c2cnc(OC)c3nc(NC(=O)N4CCC5(CCOCC5)C4)sc23)c(OC)n1 [compound 239]    > 1000 nM
COCCn1cc(C(=O)Nc2nc3c(OC)ncc(C4CCOCC4)c3s2)cn1 [compound 29]    < 1000 nM
COc1ncc(-c2ccccc2)c2sc(NC(=O)c3ccc(CN4CCCC4=O)cc3)nc12 [compound 62]    < 1000 nM
COc1ncc(-c2cnn(C)c2)c2sc(NC(=O)N3CC[C@@]4(CCOC4)C3)nc12 [compound 172]    > 1000 nM
COc1ncc(N2CCOCC2)c2sc(NC(=O)N3CC[C@@]4(CCOC4)C3)nc12 [compound 18]    > 1000 nM

State the recorded IC50 for this entry: COc1ncc(-c2ccccc2)c2sc(NC(=O)N3CC[C@]4(CCOC4)C3)nc12 [compound 207] < 1000 nM

State the recorded IC50 for this entry: COc1ncc(N2CCOCC2)c2sc(NC(=O)N3CC[C@]4(CCOC4)C3)nc12 [compound 17] > 1000 nM

State the recorded IC50 for this entry: COc1ncc(N2CCOCC2)c2sc(NC(=O)c3ccc(Cn4ccnc4)cc3)nc12 [compound 33] > 1000 nM

State the recorded IC50 for this entry: COc1ncc(C2CCOCC2)c2sc(NC(=O)N3CCC4(CCOCC4)C3)nc12 [compound 232] > 1000 nM

State the recorded IC50 for this entry: COc1ncc(-c2ccc(F)cc2)c2sc(NC(=O)N3CCC4(CCOCC4)C3)nc12 [compound 193] > 1000 nM

State the recorded IC50 for this entry: COc1ncc(-c2cnn(C)c2)c2sc(NC(=O)N3CCC4(CCOC4)C3)nc12 (stereo not shown) [compound 82] > 1000 nM

State the recorded IC50 for this entry: COc1ncc(-c2cnn(C)c2)c2sc(NC(=O)N3CC[C@]4(CCOC4)C3)nc12 [compound 173] > 1000 nM

State the recorded IC50 for this entry: COc1ncc(C2=CCOCC2)c2sc(NC(=O)c3cnn(C)c3)nc12 [compound 238] < 10 nM

State the recorded IC50 for this entry: COc1ncc(-c2cc(F)ccc2F)c2sc(NC(=O)N3CCC4(CCOCC4)C3)nc12 [compound 210] > 1000 nM

State the recorded IC50 for this entry: COc1ncc(N2CCOCC2)c2sc(NC(=O)N3CCC(O)(Cc4ccccc4)CC3)nc12 [compound 7] < 1000 nM

State the recorded IC50 for this entry: COc1ncc(-c2cnn(C)c2)c2sc(NC(=O)N3CCC4(CCCOC4)C3)nc12 (stereo not shown) [compound 80] > 1000 nM

State the recorded IC50 for this entry: COc1ncc(-c2cccc(F)c2)c2sc(NC(=O)N3CCC4(CCOCC4)C3)nc12 [compound 194] < 1000 nM

State the recorded IC50 for this entry: COc1ncc(-c2ccccc2)c2sc(NC(=O)c3cnc(C)s3)nc12 [compound 190] < 1000 nM

State the recorded IC50 for this entry: COc1ncc(N2CCOCC2)c2sc(NC(=O)C3CC3)nc12 [compound 167] > 1000 nM
